# credit: ChEMBL document CHEMBL4340507

Tested on: PC-3
assayNotes: Antiproliferative activity against human PC3 cells assessed as decrease in cell viability measured after 72 hrs by MTT assay
Assay type: functional, cell-based
runConditions: PC-3, 72 h
Parameter: pIC50. Scope: all listed entries.
# pIC50 is unitless: minus log10 of the molar concentration; print number only

Known pIC50 results, listed for orientation:
# sampleSmiles, pIC50
measured = [
    ("O=C(Nc1ccc(F)cc1)c1ccc2c(ccn2Cc2ccc(-c3ccccc3)cc2)c1", 5.08),
    ("Cn1cc(CNCCc2ccc(-c3ccccc3)cc2)c2cc(C(=O)Nc3ccc(F)cc3)ccc21", 4.34),
    ("CCCn1cc(CNCCc2ccc(-c3ccccc3)cc2)c2cc(CNc3ccc(F)cc3)ccc21", 5.27),
]

### Prompt Please look up its pIC50: CN(Cc1ccc(Oc2ccccc2)cc1)Cc1cn(C)c2ccc(CNc3ccc(F)cc3)cc12
### Response 4.25

### Prompt Please look up its pIC50: CN(CCc1ccc(Oc2ccccc2)cc1)Cc1cn(C)c2ccc(C(=O)Nc3ccc(F)cc3)cc12
### Response 4.51

### Prompt Please look up its pIC50: COc1cc(CN(C)Cc2cn(C)c3ccc(C(=O)Nc4ccc(F)cc4)cc23)cc(OC)c1OC
### Response 5.19

### Prompt Please look up its pIC50: CN(CCc1ccc(-c2ccccc2)cc1)Cc1cn(C)c2ccc(CNc3ccc(F)cc3)cc12
### Response 4.14
